Target: adenosine A1 receptor (Rattus norvegicus)
Construct: Whole brain minus cerebellum and brainstem from male Long Evans rats
Sequence (P25099 1-326): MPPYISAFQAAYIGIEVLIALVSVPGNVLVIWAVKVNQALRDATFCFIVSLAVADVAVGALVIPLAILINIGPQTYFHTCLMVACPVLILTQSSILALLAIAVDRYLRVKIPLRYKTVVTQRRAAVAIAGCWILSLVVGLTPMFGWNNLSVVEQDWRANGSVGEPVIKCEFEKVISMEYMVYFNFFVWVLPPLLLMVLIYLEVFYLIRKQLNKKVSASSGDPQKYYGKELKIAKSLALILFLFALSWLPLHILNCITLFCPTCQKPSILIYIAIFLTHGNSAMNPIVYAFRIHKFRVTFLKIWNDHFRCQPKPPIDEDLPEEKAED
Assay: Adenosine Receptor Binding--A1 Receptor Affinity (RBA1), [3H]-CHA displacement, rat whole brain membranes
Conditions: 1.0 nM [3H]-CHA, 25° C., one hour, read-out: IC50 for adenosine A1 receptor affinity (RBA-1)
readout_kind: pIC50
Here pIC50 is given on a logarithmic scale as minus log10 of the concentration in mol/L.

Solved entries (count: 2):
compound	pIC50
OC[C@H]1O[C@@H](n2cnc3c(NCC4Cc5cccc6cccc4c56)ncnc32)[C@H](O)[C@@H]1O (stereo partly drawn) [Example 3]	8.22
OC[C@H]1O[C@@H](n2cnc3c(NCC4=Cc5cccc6cccc4c56)ncnc32)[C@H](O)[C@@H]1O [Example 2, N^6-(1-acenaphthylenylmethyl)adenosine]	7.04

Consider the additional compound presented here.
Entry OC[C@H]1O[C@@H](n2cnc3c(NC4Cc5cccc6cccc4c56)ncnc32)[C@H](O)[C@@H]1O (stereo partly drawn) [Example 1, N^6 -Acenaphthyladenosine] , pIC50 reported as 6.19
